TEST_SYSTEM: MAO-A (Homo sapiens)
Sequence (P21397 whole entry): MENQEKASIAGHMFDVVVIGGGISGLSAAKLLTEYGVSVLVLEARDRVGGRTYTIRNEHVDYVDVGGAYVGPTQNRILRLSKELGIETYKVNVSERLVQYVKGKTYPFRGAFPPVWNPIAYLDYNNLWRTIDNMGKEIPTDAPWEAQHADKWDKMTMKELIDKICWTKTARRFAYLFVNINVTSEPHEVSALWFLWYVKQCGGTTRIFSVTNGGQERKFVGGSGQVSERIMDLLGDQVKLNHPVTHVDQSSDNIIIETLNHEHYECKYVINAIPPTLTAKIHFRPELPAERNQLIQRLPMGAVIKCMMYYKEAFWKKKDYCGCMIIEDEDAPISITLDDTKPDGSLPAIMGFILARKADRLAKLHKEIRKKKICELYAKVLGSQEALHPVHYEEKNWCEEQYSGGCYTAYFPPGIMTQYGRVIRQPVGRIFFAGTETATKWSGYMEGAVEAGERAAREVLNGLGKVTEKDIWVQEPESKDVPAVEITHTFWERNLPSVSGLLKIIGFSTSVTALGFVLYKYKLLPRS
PROCEDURE_TEXT: Inhibition of MAO-A (unknown origin) at 1 uM using luciferin-derived luminogenic substrate by MAO-Glo assay relative to control
PROTOCOL_CONDITIONS: MAO-A enzyme (unknown origin), probe luciferin-derived luminogenic substrate
RECORDED_METRIC: inhibition at 1 µM (%)
The reply should be a number in %, with the unit left off.

Ask: Give the observed inhibition at 1 µM of c1ccc(CSc2nc(Sc3ccccn3)c3nnn(Cc4ccccc4)c3n2)cc1 for MAO-A (Homo sapiens).
Reply: 34

###

TEST_SYSTEM: Lysine-specific histone demethylase 1A (Homo sapiens, UniProt O60341)
PROCEDURE_TEXT: Inhibition of full length recombinant LSD1 (unknown origin) expressed in Escherichia coli […] using H3K4me2 as substrate by fluorescence assay
RECORDED_METRIC: IC50
Express your answer as a number followed by its unit.

Ask: Look up and state reported IC50 for O=C(O)c1ccc(CN2CCC(CN[C@@H]3C[C@H]3c3ccccc3)CC2)cc1
Reply: 0.041 µM

###

TEST_SYSTEM: MAO-A (Homo sapiens)
PROCEDURE_TEXT: Inhibition of MAO-A (unknown origin) at 10 uM using luciferin-derived luminogenic substrate by MAO-Glo assay relative to control
PROTOCOL_CONDITIONS: MAO-A enzyme (unknown origin), probe luciferin-derived luminogenic substrate
RECORDED_METRIC: inhibition at 10 µM (%)
The reply should be a number in %, with the unit left off.

Ask: Look up and state reported inhibition at 10 µM for c1ccc(CSc2nc(Sc3ccccn3)c3nnn(Cc4ccccc4)c3n2)cc1
Reply: 59

###

TEST_SYSTEM: MAO-B (Homo sapiens, UniProt P27338)
Sequence (P27338 whole entry): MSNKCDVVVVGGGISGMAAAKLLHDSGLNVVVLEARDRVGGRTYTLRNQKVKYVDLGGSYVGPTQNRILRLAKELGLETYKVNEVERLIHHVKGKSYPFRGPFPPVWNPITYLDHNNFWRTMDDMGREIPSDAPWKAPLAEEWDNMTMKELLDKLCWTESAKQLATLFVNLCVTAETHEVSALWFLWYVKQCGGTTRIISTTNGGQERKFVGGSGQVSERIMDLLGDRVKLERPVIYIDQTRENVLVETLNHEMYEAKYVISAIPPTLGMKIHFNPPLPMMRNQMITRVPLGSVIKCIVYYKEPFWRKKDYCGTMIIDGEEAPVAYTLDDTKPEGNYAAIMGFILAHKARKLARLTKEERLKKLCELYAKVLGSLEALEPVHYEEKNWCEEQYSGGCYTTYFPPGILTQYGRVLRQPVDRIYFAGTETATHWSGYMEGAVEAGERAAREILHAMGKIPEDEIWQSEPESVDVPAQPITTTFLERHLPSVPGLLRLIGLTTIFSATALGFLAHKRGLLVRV
PROCEDURE_TEXT: Inhibition of MAO-B (unknown origin) at 1 uM using luciferin-derived luminogenic substrate by MAO-Glo assay relative to control
PROTOCOL_CONDITIONS: MAO-B enzyme (unknown origin), probe luciferin-derived luminogenic substrate
RECORDED_METRIC: inhibition at 1 µM
Express your answer as a number followed by its unit.

Ask: Give the observed inhibition at 1 µM of c1ccc(CSc2nc(Sc3ccccn3)c3nnn(Cc4ccccc4)c3n2)cc1 for MAO-B (Homo sapiens, UniProt P27338).
Reply: 11%

###

TEST_SYSTEM: MAO-B (Homo sapiens, UniProt P27338)
Sequence (P27338 whole entry): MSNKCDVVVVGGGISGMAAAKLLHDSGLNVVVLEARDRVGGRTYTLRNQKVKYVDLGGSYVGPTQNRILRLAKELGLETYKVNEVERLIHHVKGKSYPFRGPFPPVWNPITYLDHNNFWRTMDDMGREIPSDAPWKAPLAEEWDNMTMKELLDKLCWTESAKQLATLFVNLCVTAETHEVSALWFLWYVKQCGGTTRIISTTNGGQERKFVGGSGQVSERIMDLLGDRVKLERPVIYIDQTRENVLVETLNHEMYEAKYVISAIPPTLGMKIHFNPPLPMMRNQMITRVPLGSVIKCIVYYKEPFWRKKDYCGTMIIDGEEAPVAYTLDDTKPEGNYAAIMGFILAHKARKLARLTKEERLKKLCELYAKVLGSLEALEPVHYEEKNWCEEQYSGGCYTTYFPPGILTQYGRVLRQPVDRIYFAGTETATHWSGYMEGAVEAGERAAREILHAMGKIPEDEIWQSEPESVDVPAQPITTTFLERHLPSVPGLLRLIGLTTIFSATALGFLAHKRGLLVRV
PROCEDURE_TEXT: Inhibition of MAO-B (unknown origin) at 10 uM using luciferin-derived luminogenic substrate by MAO-Glo assay relative to control
PROTOCOL_CONDITIONS: MAO-B enzyme (unknown origin), probe luciferin-derived luminogenic substrate
RECORDED_METRIC: inhibition at 10 µM (%)
The reply should be a number in %, with the unit left off.

Ask: Look up and state reported inhibition at 10 µM for c1ccc(CSc2nc(Sc3ccccn3)c3nnn(Cc4ccccc4)c3n2)cc1
Reply: 39
